tested on: MCF7; assay: Cytotoxicity against human MCF7 cells at 30 uM after 3 days by coulter counter method; assay type: cell-based; details: mcf7, 72 h
PROPERTY LABEL: Activity

[[record]]
compound = "CCOC(=O)CN(Cc1cccc(F)c1)c1ccc2c(c1)OC(C)(COc1ccc(C(=N)N)cc1)CN2C (stereo not drawn)"
result = "Toxic"

[[record]]
compound = "CCOC(=O)CN(Cc1ccc(F)cc1)c1ccc2c(c1)OC(C)(COc1ccc(C(=N)N)cc1)CN2C (stereo not drawn)"
result = "Toxic"

[[record]]
compound = "CCOC(=O)CN(Cc1ccc(F)c(F)c1)c1ccc2c(c1)N(C)CC(C)(COc1ccc(C(=N)N)cc1)O2 (stereo not drawn)"
result = "Toxic"

[[record]]
compound = "CCOC(=O)CN(Cc1cc(F)cc(F)c1)c1ccc2c(c1)N(C)CC(C)(COc1ccc(C(=N)N)cc1)O2 (stereo not drawn)"
result = "Toxic"

[[record]]
compound = "CCOC(=O)C(=O)N(Cc1cc(F)cc(F)c1)c1ccc2c(c1)N(C)CC(C)(COc1ccc(C(=N)N)cc1)O2 (stereo not drawn)"
result = "Non-toxic"

[[record]]
compound = "CCOC(=O)C(=O)N(Cc1ccc(F)cc1)c1ccc2c(c1)N(C)CC(C)(COc1ccc(C(=N)N)cc1)O2 (stereo not drawn)"
result = "Non-toxic"

[[record]]
compound = "CCOC(=O)C(=O)N(Cc1ccc(F)c(F)c1)c1ccc2c(c1)OC(C)(COc1ccc(C(=N)N)cc1)CN2C (stereo not drawn)"
result = "Non-toxic"

[[record]]
compound = "CCOC(=O)C(=O)N(Cc1cccc(F)c1)c1ccc2c(c1)OC(C)(COc1ccc(C(=N)N)cc1)CN2C (stereo not drawn)"
result = "Non-toxic"


src = ChEMBL document CHEMBL2216753
